# Tested on: Caco-2
# experimental_protocol: cell viability relative to DMSO; higher = less toxic
# study_conditions: 72 h; 10000 nM
Each entry below carries its recorded cell viability.
Answer format: numeric, % implied, no suffix.

{"compound": "CN(C)CC[C@H](CSc1ccccc1)Nc1ccc(S(=O)(=O)NC(=O)c2ccc(N3CCN(Cc4ccccc4-c4ccc(Cl)cc4)CC3)cc2)cc1[N+](=O)[O-] [ABT-737]", "parameter_measured": "cell viability", "reported": 83.8}

Turning to the following compound.
Requested read-out: cell viability. Entry: N[C@H]1C(O)O[C@H](CO)[C@@H](O)[C@@H]1O (mixture of isomers) [glucosamine]
100

Entry source: the supplement of paper PMC13380429
